- assay.method.text: Fraction unbound in Hartley guinea pig brain homogenates at 1 uM after 6 hrs by equilibrium dialysis method
- test.parameters: brain homogenate
As shown below, each of these compounds has a reported fraction unbound at 6 h, 1 µM value.
Respond using a number only.

Some compounds with recorded fraction unbound at 6 h, 1 µM:
Task item: Would you mind telling me what fraction unbound at 6 h, 1 µM value was observed for CCCCN1CCCCC1C(=O)Nc1c(C)cccc1C (stereo not drawn) [BUPIVACAINE] ?
Reply: 0.204

Task item: Would you mind telling me what fraction unbound at 6 h, 1 µM value was observed for CC(=O)CC(c1ccccc1)c1c(O)c2ccccc2oc1=O (stereo not drawn) [WARFARIN] ?
Reply: 0.326

Task item: Would you mind telling me what fraction unbound at 6 h, 1 µM value was observed for NC12CC3CC(CC(C3)C1)C2 [AMANTADINE] ?
Reply: 0.178

Task item: Would you mind telling me what fraction unbound at 6 h, 1 µM value was observed for NS(=O)(=O)Cc1noc2ccccc12 [ZONISAMIDE] ?
Reply: 0.389

Task item: Would you mind telling me what fraction unbound at 6 h, 1 µM value was observed for CC(NC(C)(C)C)C(=O)c1cccc(Cl)c1 (stereo not drawn) [BUPROPION] ?
Reply: 0.177

Others:
Task item: Would you mind telling me what fraction unbound at 6 h, 1 µM value was observed for CN(C)CCCN1c2ccccc2Sc2ccc(Cl)cc21 [CHLORPROMAZINE] ?
Reply: 0.003

Task item: Would you mind telling me what fraction unbound at 6 h, 1 µM value was observed for O=c1n(CCCN2CCN(c3cccc(Cl)c3)CC2)nc2ccccn12 [TRAZODONE] ?
Reply: 0.059

Task item: Would you mind telling me what fraction unbound at 6 h, 1 µM value was observed for Cc1c(C(=O)NN2CCCCC2)nn(-c2ccc(Cl)cc2Cl)c1-c1ccc(Cl)cc1 [RIMONABANT] ?
Reply: 0.0004

Task item: Would you mind telling me what fraction unbound at 6 h, 1 µM value was observed for CCCCCCCN(CC)CCCC(O)c1ccc(NS(C)(=O)=O)cc1 (stereo not drawn) [IBUTILIDE] ?
Reply: 0.075

Task item: Would you mind telling me what fraction unbound at 6 h, 1 µM value was observed for CC(C)C[C@H]1C(=O)N2CCC[C@H]2[C@]2(O)O[C@](NC(=O)[C@@H]3C=C4c5cccc6[nH]c(Br)c(c56)C[C@H]4N(C)C3)(C(C)C)C(=O)N12 [BROMOCRIPTINE] ?
Reply: 0.002

----------
- assay.method.text: Fraction unbound in human occipital cortex at 1 uM after 6 hrs by equilibrium dialysis method
Note: every record was labeled by where its fraction unbound at 6 h, 1 µM sits among LOW: < 0.008; MID: ≥ 0.008 and < 0.1; HIGH: ≥ 0.1

Task item: For Fc1ccc([C@@H]2CCNC[C@H]2COc2ccc3c(c2)OCO3)cc1 , which fraction unbound at 6 h, 1 µM bin applies?
Reply: LOW

Task item: For Cc1nc2n(c(=O)c1CCN1CCC(c3noc4cc(F)ccc34)CC1)CCCC2O (centres undefined) , which fraction unbound at 6 h, 1 µM bin applies?
Reply: HIGH

Task item: For COc1ccc2c(c1)c(CC(=O)O)c(C)n2C(=O)c1ccc(Cl)cc1 , which fraction unbound at 6 h, 1 µM bin applies?
Reply: MID

Task item: For O=C1NC(=O)C(c2ccccc2)(c2ccccc2)N1 , which fraction unbound at 6 h, 1 µM bin applies?
Reply: MID

Task item: For O=C1CCc2ccc(OCCCCN3CCN(c4cccc(Cl)c4Cl)CC3)cc2N1 , which fraction unbound at 6 h, 1 µM bin applies?
Reply: LOW

Task item: For CCN(CC)CCNC(=O)c1cc(Cl)c(N)cc1OC [METOCLOPRAMIDE] , which fraction unbound at 6 h, 1 µM bin applies?
Reply: HIGH

Task item: For CCN(C)C(=O)Oc1cccc([C@H](C)N(C)C)c1 , which fraction unbound at 6 h, 1 µM bin applies?
Reply: HIGH

Here is another compound to look at.
Task item: For CCN(CC)C(=O)/C(C#N)=C/c1cc(O)c(O)c([N+](=O)[O-])c1 , which fraction unbound at 6 h, 1 µM bin applies?
Reply: MID

----------
As shown below, each of these compounds has a reported fraction unbound at 6 h, 1 µM value.
- assay.method.text: Fraction unbound in cynomolgus monkey brain homogenates at 1 uM after 6 hrs by equilibrium dialysis method
- test.parameters: brain homogenate
Respond using a number only.

Task item: Would you mind telling me what fraction unbound at 6 h, 1 µM value was observed for CCN(C)C(=O)Oc1cccc([C@H](C)N(C)C)c1 ?
Reply: 0.316

Others:
Task item: Would you mind telling me what fraction unbound at 6 h, 1 µM value was observed for CNCCCN1c2ccccc2CCc2ccccc21 ?
Reply: 0.012

Task item: Would you mind telling me what fraction unbound at 6 h, 1 µM value was observed for CN(C)CCCN1c2ccccc2Sc2ccc(Cl)cc21 ?
Reply: 0.004

Task item: Would you mind telling me what fraction unbound at 6 h, 1 µM value was observed for CN(C)CCCN1c2ccccc2CCc2ccc(Cl)cc21 ?
Reply: 0.006

Task item: Would you mind telling me what fraction unbound at 6 h, 1 µM value was observed for NC(=O)N1c2ccccc2C=Cc2ccccc21 [CARBAMAZEPINE] ?
Reply: 0.185

Task item: Would you mind telling me what fraction unbound at 6 h, 1 µM value was observed for Cc1c(C(=O)NN2CCCCC2)nn(-c2ccc(Cl)cc2Cl)c1-c1ccc(Cl)cc1 ?
Reply: 0.0006

Task item: Would you mind telling me what fraction unbound at 6 h, 1 µM value was observed for O=C(O[C@H]1CN2CCC1CC2)N1CCc2ccccc2[C@@H]1c1ccccc1 ?
Reply: 0.016

Task item: Would you mind telling me what fraction unbound at 6 h, 1 µM value was observed for C[C@@H](O[C@H]1OCCN(Cc2n[nH]c(=O)[nH]2)[C@H]1c1ccc(F)cc1)c1cc(C(F)(F)F)cc(C(F)(F)F)c1 [APREPITANT] ?
Reply: 0.002

Task item: Would you mind telling me what fraction unbound at 6 h, 1 µM value was observed for O=C1NC(=O)C(c2ccccc2)(c2ccccc2)N1 ?
Reply: 0.114

----------
- assay.method.text: Fraction unbound in Sprague-Dawley rat brain homogenates at 1 uM after 6 hrs by equilibrium dialysis method
- test.parameters: brain homogenate
experimental.endpoint: fraction unbound at 6 h, 1 µM
Respond using a number only.

Task item: Would you mind telling me what fraction unbound at 6 h, 1 µM value was observed for CN1Cc2c(N)cccc2C(c2ccccc2)C1 (centres undefined) ?
Reply: 0.064

Task item: Would you mind telling me what fraction unbound at 6 h, 1 µM value was observed for Cc1ccc(C(=O)c2cc(O)c(O)c([N+](=O)[O-])c2)cc1 ?
Reply: 0.007

Task item: Would you mind telling me what fraction unbound at 6 h, 1 µM value was observed for CN1[C@@H]2CC[C@H]1C[C@@H](OC(=O)c1c[nH]c3ccccc13)C2 ?
Reply: 0.045

Task item: Would you mind telling me what fraction unbound at 6 h, 1 µM value was observed for CCCc1nc2c(C)cc(-c3nc4ccccc4n3C)cc2n1Cc1ccc(-c2ccccc2C(=O)O)cc1 ?
Reply: 0.017

Others:
Task item: Would you mind telling me what fraction unbound at 6 h, 1 µM value was observed for CNCCC=C1c2ccccc2CCc2ccccc21 ?
Reply: 0.005

Task item: Would you mind telling me what fraction unbound at 6 h, 1 µM value was observed for Cc1c(C(=O)NN2CCCCC2)nn(-c2ccc(Cl)cc2Cl)c1-c1ccc(Cl)cc1 ?
Reply: 0.0006

Task item: Would you mind telling me what fraction unbound at 6 h, 1 µM value was observed for Cc1nc2n(c(=O)c1CCN1CCC(c3noc4cc(F)ccc34)CC1)CCCC2O (centres undefined) ?
Reply: 0.078

Task item: Would you mind telling me what fraction unbound at 6 h, 1 µM value was observed for NC12CC3CC(CC(C3)C1)C2 ?
Reply: 0.147

Task item: Would you mind telling me what fraction unbound at 6 h, 1 µM value was observed for CN(C)CCCC1(c2ccc(F)cc2)OCc2cc(C#N)ccc21 (centres undefined) ?
Reply: 0.03

----------
- assay.method.text: Fraction unbound in Wistar Han rat brain homogenates at 1 uM after 6 hrs by equilibrium dialysis method
- test.parameters: brain homogenate
Tick Yes if fraction unbound at 6 h, 1 µM is 0.07 or greater. Tick No if fraction unbound at 6 h, 1 µM is less than 0.07.

Task item: Hi team, for Cc1nc2n(c(=O)c1CCN1CCC(c3noc4cc(F)ccc34)CC1)CCCC2O (centres undefined) , is the recorded fraction unbound at 6 h, 1 µM at or above 0.07?
Reply: Yes

Task item: Hi team, for CN1Cc2c(N)cccc2C(c2ccccc2)C1 (centres undefined) , is the recorded fraction unbound at 6 h, 1 µM at or above 0.07?
Reply: No

Task item: Hi team, for CN1CCCC(n2nc(Cc3ccc(Cl)cc3)c3ccccc3c2=O)CC1 (centres undefined) , is the recorded fraction unbound at 6 h, 1 µM at or above 0.07?
Reply: No

Task item: Hi team, for O=C1CCc2ccc(OCCCCN3CCN(c4cccc(Cl)c4Cl)CC3)cc2N1 , is the recorded fraction unbound at 6 h, 1 µM at or above 0.07?
Reply: No

Task item: Hi team, for CC(C)(C)NCC(O)COc1ccc(NC(=O)NC2CCCCC2)cc1 (centres undefined) , is the recorded fraction unbound at 6 h, 1 µM at or above 0.07?
Reply: Yes

Task item: Hi team, for CC(C)C[C@H]1C(=O)N2CCC[C@H]2[C@]2(O)O[C@](NC(=O)[C@@H]3C=C4c5cccc6[nH]c(Br)c(c56)C[C@H]4N(C)C3)(C(C)C)C(=O)N12 , is the recorded fraction unbound at 6 h, 1 µM at or above 0.07?
Reply: No

Task item: Hi team, for C[C@@H](O[C@H]1OCCN(Cc2n[nH]c(=O)[nH]2)[C@H]1c1ccc(F)cc1)c1cc(C(F)(F)F)cc(C(F)(F)F)c1 [APREPITANT] , is the recorded fraction unbound at 6 h, 1 µM at or above 0.07?
Reply: No

Task item: Hi team, for CCCCCCCN(CC)CCCC(O)c1ccc(NS(C)(=O)=O)cc1 (centres undefined) [IBUTILIDE] , is the recorded fraction unbound at 6 h, 1 µM at or above 0.07?
Reply: Yes

Others:
Task item: Hi team, for CCCc1nc2c(C)cc(-c3nc4ccccc4n3C)cc2n1Cc1ccc(-c2ccccc2C(=O)O)cc1 , is the recorded fraction unbound at 6 h, 1 µM at or above 0.07?
Reply: No

Task item: Hi team, for CN(C)CCCN1c2ccccc2CCc2ccc(Cl)cc21 , is the recorded fraction unbound at 6 h, 1 µM at or above 0.07?
Reply: No

Task item: Hi team, for NC(=O)N1c2ccccc2C=Cc2ccccc21 [CARBAMAZEPINE] , is the recorded fraction unbound at 6 h, 1 µM at or above 0.07?
Reply: Yes

Task item: Hi team, for Fc1ccc([C@@H]2CCNC[C@H]2COc2ccc3c(c2)OCO3)cc1 , is the recorded fraction unbound at 6 h, 1 µM at or above 0.07?
Reply: No

Task item: Hi team, for COC(=O)C1=C(C)NC(C)=C(C(=O)OCCN(C)Cc2ccccc2)C1c1cccc([N+](=O)[O-])c1 (centres undefined) , is the recorded fraction unbound at 6 h, 1 µM at or above 0.07?
Reply: No

Task item: Hi team, for CNCCCN1c2ccccc2CCc2ccccc21 , is the recorded fraction unbound at 6 h, 1 µM at or above 0.07?
Reply: No
